organism: Homo sapiens; experiment: Selectivity index, ratio of IC50 for human recombinant MAOA to IC50 for human recombinant MAOB
# note: boundary value 9 maps to FALSE; Ratio IC50 below it maps to TRUE

These recorded examples may help you get a feel for the data.
I'd appreciate it if you could check whether COc1cccc(-c2csc(N/N=C(\C)c3ccncc3)n2)c1 has Ratio IC50 smaller than 9. FALSE

I'd appreciate it if you could check whether COc1cccc(-c2csc(NN=C3CCCC3)n2)c1 has Ratio IC50 smaller than 9. TRUE

I'd appreciate it if you could check whether COc1cccc(-c2csc(NN=C3CCCCC3)n2)c1 has Ratio IC50 smaller than 9. FALSE

I'd appreciate it if you could check whether COc1cccc(-c2csc(N/N=C/c3cccnc3)n2)c1 has Ratio IC50 smaller than 9. TRUE

I'd appreciate it if you could check whether COc1cccc(-c2csc(N/N=C/c3c[nH]c4ccccc34)n2)c1 has Ratio IC50 smaller than 9. TRUE

I'd appreciate it if you could check whether COc1cccc(-c2csc(NN=C3CCC(C)CC3)n2)c1 (configuration not stated) has Ratio IC50 smaller than 9. FALSE

I'd appreciate it if you could check whether COc1cccc(-c2csc(N/N=C(\C)c3cccnc3)n2)c1 has Ratio IC50 smaller than 9. FALSE

I'd appreciate it if you could check whether COc1cccc(-c2csc(NN=C(C)C)n2)c1 has Ratio IC50 smaller than 9. TRUE

Next:
I'd appreciate it if you could check whether COc1cccc(-c2csc(N/N=C/c3cccs3)n2)c1 has Ratio IC50 smaller than 9. TRUE

I'd appreciate it if you could check whether COc1cccc(-c2csc(N/N=C/c3ccncc3)n2)c1 has Ratio IC50 smaller than 9. TRUE

I'd appreciate it if you could check whether COc1cccc(-c2csc(N/N=C3\CCCC3C)n2)c1 (configuration not stated) has Ratio IC50 smaller than 9. FALSE

I'd appreciate it if you could check whether COc1cccc(-c2csc(N/N=C(\C)c3cc4ccccc4oc3=O)n2)c1 has Ratio IC50 smaller than 9. TRUE

I'd appreciate it if you could check whether COc1cccc(-c2csc(N/N=C(\C)c3cccs3)n2)c1 has Ratio IC50 smaller than 9. TRUE

I'd appreciate it if you could check whether CCC(CC)=NNc1nc(-c2cccc(OC)c2)cs1 has Ratio IC50 smaller than 9. TRUE

I'd appreciate it if you could check whether COc1cccc(-c2csc(NN=C3CCCCCC3)n2)c1 has Ratio IC50 smaller than 9. FALSE

I'd appreciate it if you could check whether CCC/C(C)=N/Nc1nc(-c2cccc(OC)c2)cs1 has Ratio IC50 smaller than 9. TRUE

I'd appreciate it if you could check whether CCCCC/C(C)=N/Nc1nc(-c2cccc(OC)c2)cs1 has Ratio IC50 smaller than 9. TRUE

I'd appreciate it if you could check whether COc1cccc(-c2csc(N/N=C3\CCCC(C)C3)n2)c1 (configuration not stated) has Ratio IC50 smaller than 9. FALSE

I'd appreciate it if you could check whether COc1cccc(-c2csc(N/N=C3\CCCCC3C)n2)c1 (configuration not stated) has Ratio IC50 smaller than 9. FALSE

I'd appreciate it if you could check whether COc1cccc(-c2csc(N/N=C3\CCC(C)C3)n2)c1 (configuration not stated) has Ratio IC50 smaller than 9. TRUE

I'd appreciate it if you could check whether COc1cccc(-c2csc(N/N=C/c3ccco3)n2)c1 has Ratio IC50 smaller than 9. TRUE

I'd appreciate it if you could check whether COc1cccc(-c2csc(N/N=C(\C)c3ccco3)n2)c1 has Ratio IC50 smaller than 9. TRUE
